Data provenance is paper PMC12040169.

system: CTL2-GFP (C. trachomatis L2/434/Bu, GFP-expressing); construct: L2/434/Bu, GFP-expressing; test: microbe, parasite or virus in culture; parameters: Intracellular C. trachomatis growth in HeLa cells, bulk GFP fluorescence relative to DMSO; conditions: Chlamydia trachomatis, HeLa, 28.5 h; bulk GFP, mean of 2; read-out: % of control remaining
experimental.endpoint: activity at 5 µM (%)
Enter your answer as a number in %; do not include the unit.

q: State, in one line, measured activity at 5 µM of "Cc1cc(C)nc(NC(=N)NCCc2c[nH]c3ccccc23)n1"
a: 67.2

* * *

experiment: in vitro; settings: human, hela cells, % viability
Hi! Could you tag entries with viability at 28.5 h, 10 µM below 90% as 1, and those at or above as 0? Much appreciated.

Solved cases below.
compound: O=C1C2CCCCN2C(=O)N1c1cccnc1 (centres unmarked)
class.label: 0
--
compound: CCCc1c(C(=O)N2CCN(c3cnccn3)CC2)cnn1C
class.label: 0
--
compound: CCc1onc(C)c1C(=O)NCC1CCCCN1CC(C)C (centres unmarked)
class.label: 0
--
compound: COc1cccc(OC)c1-c1cn2ccnc2c(N[C@H](CO)C(C)C)n1
class.label: 0
--
compound: O=C(O)Cn1nnc(-c2ccncc2)n1
class.label: 1
--
compound: O=C(CC1NC(=O)NC1=O)Nc1ccc(C(=O)O)cc1 (centres unmarked)
class.label: 0

q: # check: viability at 28.5 h, 10 µM < 90% for "OCc1ccc(-c2cc(NCc3cccs3)n3nccc3n2)cc1"
a: 0

q: # check: viability at 28.5 h, 10 µM < 90% for "CCNC(=S)N1CCN(C(=O)c2cccc(OC)c2)CC1"
a: 0

q: # check: viability at 28.5 h, 10 µM < 90% for O=S(=O)(Nc1cccc(C(F)(F)F)c1)c1ccc(N2CCCNCC2)c2ccccc12 [CBK003929C]
a: 1

q: # check: viability at 28.5 h, 10 µM < 90% for "NC(=O)C1(N2CCCCC2)CCN(CC(=O)Nc2ccccc2Sc2ccccc2)CC1"
a: 0

q: # check: viability at 28.5 h, 10 µM < 90% for "Cc1ccc(CS(=O)(=O)NCc2ccccc2-n2ccnc2)cc1"
a: 0

q: # check: viability at 28.5 h, 10 µM < 90% for COc1ccc(C2Nc3ccccc3C(=O)N2Cc2ccccc2)cc1COc1ccc([N+](=O)[O-])cc1 (centres unmarked)
a: 1

q: # check: viability at 28.5 h, 10 µM < 90% for C[C@H]1CN2CCCC2CN1Cc1cccc(F)c1 (some centres unmarked)
a: 0

q: # check: viability at 28.5 h, 10 µM < 90% for "Nc1ncnc2[nH]c(SCc3nc4ccc(I)cc4c(=O)n3-c3ccccc3)nc12"
a: 0

q: # check: viability at 28.5 h, 10 µM < 90% for "COC(=O)[C@H](CC1CCCCC1)NS(=O)(=O)c1ccc(C(C)C)cc1"
a: 0

q: # check: viability at 28.5 h, 10 µM < 90% for "O=C(NCn1nnc2ccccc21)c1ccccc1"
a: 0

* * *

Measured viability at 28.5 h, 10 µM accompanies every entry in the list below.
experiment: in vitro; conditions: human, hela cells, % viability
Enter your answer as a number in %; do not include the unit.

cpd.smiles: Cn1c(Cc2cccc3ccccc23)nnc1SCc1ccc([N+](=O)[O-])cc1
experimental.endpoint: viability at 28.5 h, 10 µM
assay.result: 93.6

cpd.smiles: CN1CCN(C(=O)c2ccc(-c3cnc(OCC4CCN(C(=O)OC(C)(C)C)CC4)nc3)cn2)CC1
experimental.endpoint: viability at 28.5 h, 10 µM
assay.result: 93.5

cpd.smiles: NCCCOc1nc2ccccc2nc1N1CCCC1
experimental.endpoint: viability at 28.5 h, 10 µM
assay.result: 95.8

cpd.smiles: CCCCN(/C=N/S(=O)(=O)c1ccccc1)CCCC
experimental.endpoint: viability at 28.5 h, 10 µM
assay.result: 92.2

Now examine the next entry.
q: State, in one line, measured viability at 28.5 h, 10 µM of "Cc1cc(C)n2nc(SCc3nc4sc(C(=O)O)c(C)c4c(=O)[nH]3)nc2n1"
a: 88.1
